# MEASURED_TARGET: soluble epoxide hydrolase (sEH) (Homo sapiens, UniProt P34913)
# Construct: purchased Cayman Chemical Company 100116
# Sequence (P34913 1-555): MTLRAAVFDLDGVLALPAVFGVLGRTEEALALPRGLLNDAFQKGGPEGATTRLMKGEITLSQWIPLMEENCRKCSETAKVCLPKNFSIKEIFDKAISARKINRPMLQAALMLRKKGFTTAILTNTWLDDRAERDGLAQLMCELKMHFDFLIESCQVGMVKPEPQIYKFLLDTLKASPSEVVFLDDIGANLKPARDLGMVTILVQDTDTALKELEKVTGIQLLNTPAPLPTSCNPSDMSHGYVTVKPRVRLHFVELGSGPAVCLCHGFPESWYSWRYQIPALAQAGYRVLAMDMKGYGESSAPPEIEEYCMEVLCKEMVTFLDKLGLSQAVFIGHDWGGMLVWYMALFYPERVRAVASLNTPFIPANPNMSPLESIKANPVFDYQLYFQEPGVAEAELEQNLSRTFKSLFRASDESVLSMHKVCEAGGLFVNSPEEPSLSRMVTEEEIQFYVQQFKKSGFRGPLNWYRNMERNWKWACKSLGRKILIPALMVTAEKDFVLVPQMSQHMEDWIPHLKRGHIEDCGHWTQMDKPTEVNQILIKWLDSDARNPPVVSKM
# ASSAY_COMMENT: sEH kinetic study (Lineweaver–Burk plots, varying inhibitor and PHOME concentrations)
# Assay type: biochemical
# EXPERIMENTAL_PARAMETERS: compound 1 to 5 μM, PHOME 1 to 20 μM
ENDPOINT_LABEL: mechanism (mode) of sEH inhibition

molecule="COc1cc(CCNC(=O)/C=C/c2ccc(O[C@@H]3O[C@H](CO)[C@H](O)[C@H](O)[C@H]3O)c(OC)c2)ccc1O [Compound 7, cimicifugamide]" result="mixed-type competitive"
molecule="COc1cc(/C=C/C(=O)NCCc2ccc(O)cc2)ccc1O[C@@H]1O[C@H](CO)[C@H](O)[C@H](O)[C@H]1O [Compound 8, demethoxycimicifugamide]" result="mixed-type competitive"

====

# MEASURED_TARGET: soluble epoxide hydrolase (sEH) (Homo sapiens, UniProt P34913)
# Sequence (P34913 1-555): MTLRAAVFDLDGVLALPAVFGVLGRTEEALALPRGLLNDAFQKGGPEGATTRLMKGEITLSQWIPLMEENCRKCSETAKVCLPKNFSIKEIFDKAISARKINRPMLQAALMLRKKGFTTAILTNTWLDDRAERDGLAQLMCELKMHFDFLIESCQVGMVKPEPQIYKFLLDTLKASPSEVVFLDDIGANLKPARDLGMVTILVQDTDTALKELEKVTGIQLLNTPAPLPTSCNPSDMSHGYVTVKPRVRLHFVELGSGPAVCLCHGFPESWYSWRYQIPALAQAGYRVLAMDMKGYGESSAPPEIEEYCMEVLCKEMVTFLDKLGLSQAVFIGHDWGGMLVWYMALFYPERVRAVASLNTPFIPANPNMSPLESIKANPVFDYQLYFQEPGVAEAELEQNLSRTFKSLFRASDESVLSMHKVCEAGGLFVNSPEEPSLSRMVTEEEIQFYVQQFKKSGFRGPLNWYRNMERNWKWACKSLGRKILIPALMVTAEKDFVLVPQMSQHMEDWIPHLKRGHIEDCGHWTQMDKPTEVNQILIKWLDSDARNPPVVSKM
# ASSAY_COMMENT: sEH inhibitory activity, fluorescence-based assay with PHOME as substrate
# EXPERIMENTAL_PARAMETERS: recombinant sEH, 37 °C, mean ± SD (n = 3)
pIC50: −log10 of the molar value.
pIC50 for assorted compounds
ENDPOINT_LABEL: pIC50

compound="CC(=O)NCCc1ccc(O)c(OC2OC(CO)C(O)C(O)C2O)c1 [Compound 4, N-acetyldopamine-3-O-β-D-allopyranoside]" endpoint_label=pIC50 result="< 4.00"
compound="COc1cc(CCNC(=O)/C=C/c2ccc(O[C@@H]3O[C@H](CO)[C@H](O)[C@H](O)[C@H]3O)c(OC)c2)ccc1O [Compound 7, cimicifugamide]" endpoint_label=pIC50 result=4.81
compound="COc1cc(C=CC(=O)NCCc2ccc(OC3OC(CO)C(O)C(O)C3O)c(OC)c2)ccc1O (stereo not shown) [Compound 9, cimicifugamide C]" endpoint_label=pIC50 result="< 4.00"
compound=CC(C)=CC(=O)c1c[nH]c2ccccc12 endpoint_label=pIC50 result="< 4.00"

====

Documented pIC50 across a set of molecules
# MEASURED_TARGET: soluble epoxide hydrolase (sEH) (Homo sapiens)
# ASSAY_COMMENT: sEH inhibitory activity, fluorescence-based assay with PHOME as substrate
# EXPERIMENTAL_PARAMETERS: recombinant sEH, 37 °C, mean ± SD (n = 3)
pIC50: −log10 of the molar value.
ENDPOINT_LABEL: pIC50

molecule="CC(=O)NCCc1ccc(O)c(O[C@@H]2O[C@H](CO)[C@@H](O)[C@H](O)[C@H]2O)c1 [Compound 5, N-acetyldopamine-3-O-β-D-glucopyranoside]" lt_gt_eq=< measured_number=4.00
molecule=CC(C)CC[C@]1(O)C(=O)N([C@@H]2O[C@H](CO)[C@@H](O)[C@H](O)[C@H]2O)c2ccccc21 lt_gt_eq=< measured_number=4.00
molecule="COc1cc(/C=C/C(=O)NCCc2ccc(O)c(O)c2)ccc1O[C@@H]1O[C@H](CO)[C@H](O)[C@H](O)[C@H]1O [Compound 6, cimicifugamide A]" lt_gt_eq== measured_number=5.06
molecule=COc1ccc2c(C(=O)C=C(C)C)c[nH]c2c1 lt_gt_eq=< measured_number=4.00
molecule="COc1cc(/C=C/C(=O)NCCc2ccc(O)cc2)ccc1O [Compound 10, N-trans-feruloyl tyramine]" lt_gt_eq== measured_number=4.77
molecule="COc1cc(/C=C/C(=O)NCCc2ccc(O)cc2)ccc1O[C@@H]1O[C@H](CO)[C@H](O)[C@H](O)[C@H]1O [Compound 8, demethoxycimicifugamide]" lt_gt_eq== measured_number=4.69
